Recorded cytotoxicity at 10 µM values for a group of compounds are listed next.
protocolDescription: Toxicity liver stage against HepG2, at 10uM
Format: cell-based
Design: test concentration 10 uM, cell line HepG2-A16-CD81EGFP
measurementContext: human, HepG2-A16-CD81EGFP cells; read-out: INHIBITION
Numbers only; they are read as %.

- OCC1(CC2CC2)CCCN(Cc2cnc(N3CCOCC3)nc2)C1 (stereo not drawn): -0.274

// query Data request, read-out cytotoxicity at 10 µM, for CN(CCO)C[C@@H]1CN(C(=O)c2c(F)cccc2Cl)C[C@@H]1CO
// result -9

// query Data request, read-out cytotoxicity at 10 µM, for CC(C)c1cc(C(=O)N2C[C@@H]3CC[C@H]2CN(Cc2ccccn2)C3)no1
// result 2.46

// query Data request, read-out cytotoxicity at 10 µM, for Cc1nc(-c2cc(C(=O)NCCN3CCOCC3)c3ccccn23)cs1
// result 3.59

// query Data request, read-out cytotoxicity at 10 µM, for Cc1cc(Cc2ccc(S(=O)(=O)N3CCSCC3)cc2)c(=O)[nH]n1
// result -10

// query Data request, read-out cytotoxicity at 10 µM, for Cc1cc(C(=O)CN2CCN(c3cnccn3)CC2)c(C)n1C(C)C
// result 7.36

// query Data request, read-out cytotoxicity at 10 µM, for COc1ccc(Br)cc1CCC(=O)N1CCCC1
// result -4.2

// query Data request, read-out cytotoxicity at 10 µM, for CN(Cc1c(F)cccc1Cl)C(=O)Nc1cnn(CC(N)=O)c1
// result -6.39

// query Data request, read-out cytotoxicity at 10 µM, for O=C(c1ccc2c(c1)OCCCO2)N1CCCC(n2ccnc2)C1 (stereo not drawn)
// result 0.893

// query Data request, read-out cytotoxicity at 10 µM, for O=C(c1cscn1)N1CCCC2(CCN2Cc2cccc(F)c2)C1 (stereo not drawn)
// result -112

// query Data request, read-out cytotoxicity at 10 µM, for Cn1cc(CN2CCc3onc(COCC4CC4)c3C2)cn1
// result 6.35

// query Data request, read-out cytotoxicity at 10 µM, for CCCS(=O)(=O)N1C[C@H](N(C)Cc2ccco2)[C@@H]2OCCC[C@@H]21
// result -78.4
